System: A549 NSCLC
Assay Overview: NCI tumour cell line growth inhibition, 48 h
Test Readout: GI50

stdin: Tell me the measured GI50 of `COn1cc(C(=O)N=C(SC)SC)c2ccccc21` , please.
stdout: 23.9 µM

stdin: Entry to check: `O=C1/C(=C/c2cccc(F)c2)CN(C(=O)C(Cl)Cl)C/C1=C\c1cccc(F)c1`
stdout: 0.655 µM

stdin: Entry to check: `COc1ccc(-c2cc3c(N)ncnc3o2)cc1`
stdout: > 25 µM

stdin: Entry to check: `CSc1nc(-c2cccc(NC(=O)CCl)c2)c(C#N)c(=O)n1C`
stdout: 3.28 µM

Next item in the queue.
stdin: Tell me the measured GI50 of `CN1CCN(Cc2ccc(NC(=O)c3cncc(C#Cc4ncc5ccccn45)c3)cc2C(F)(F)F)CC1` , please.
stdout: 1.35 µM

====

Tested on: OVCAR-8 ovarian
Assay Overview: NCI tumour cell line growth inhibition, 48 h
Recorded TGI by entry

stdin: Tell me the measured TGI of Fc1ccc(C(OCCN2CCC3CCC(C2)N3C/C=C/c2cccnc2)c2ccc(F)cc2)cc1 (stereo not given) , please.
stdout: 25.9 µM

stdin: Entry to check: `N#C/C=C\c1ccc(-c2cc(C(F)(F)F)cc(C(F)(F)F)c2)o1`
stdout: 58.5 µM

stdin: Entry to check: `Nc1ccc2c(c1)S(=O)(=O)c1cc(N)ccc1-2`
stdout: > 100 µM

stdin: Entry to check: `COC(=O)CCc1c(/C=C2\N=C(c3ccc[nH]3)C=C2OC)[nH]c(C)c1C(=O)OCc1ccccc1`
stdout: 5.75 µM

stdin: Entry to check: O=C1OC(=O)C2C1C1C(c3ccccc3)=C(c3ccccc3)C2(O)C2C(=O)OC(=O)C12 (stereo not given)
stdout: > 100 µM

stdin: Entry to check: `C/C=C1/C(=O)O[C@]23C=C[C@@H]4C(C(=O)OC)=CO[C@H](O[C@@H]12)[C@@H]43`
stdout: 11.4 µM

New cases:
stdin: Tell me the measured TGI of `COC(=O)/C=C/N1CC1` , please.
stdout: > 10 µM

stdin: Entry to check: `CCCCCC/C(CC(=O)CCC(=O)NCCc1ccccc1)=N\NC(=O)c1ccc2ccccc2c1O`
stdout: > 100 µM

====

Tested on: HCT-116 colon
Assay Overview: NCI tumour cell line growth inhibition, 48 h
Test Readout: GI50

stdin: Lab request: please report GI50 under test system HCT-116 colon for `Nc1cc(N)c2nc(-c3ccccc3)c(Oc3ccc(Cl)c(Cl)c3)nc2c1`
stdout: 15700 nM

stdin: Entry to check: CCN1C(=O)N(CC)C2C1NN=c1s/c(=C\c3cnc(C)n3C)c(=O)n12 (stereo not given)
stdout: 2430 nM

stdin: Entry to check: `COc1cc2c3c(n(CCCN4CCN(CCO)CC4)c(=O)c2cc1OC)-c1cc2c(cc1C3=O)OCO2`
stdout: 1140 nM

stdin: Entry to check: `CN1CCN(Cc2ccc(NC(=O)c3[nH]ncc3Nc3cc(OC4CCCC4)ncn3)cc2)CC1`
stdout: 755 nM

Next item in the queue.
stdin: Lab request: please report GI50 under test system HCT-116 colon for `COc1ccc(-c2cc(=O)c3cccnc3[nH]2)cc1`
stdout: 17600 nM

====

Tested on: MDA-N
Assay Overview: NCI tumour cell line growth inhibition, 48 h
Test Readout: TGI

Previously resolved entries follow.
stdin: Tell me the measured TGI of Cc1cn(C2CC(O)C(Cn3nncc3Cn3ccc(=O)[nH]c3=O)O2)c(=O)[nH]c1=O (centres undefined) , please.
stdout: > 100 µM

stdin: Entry to check: COc1cc2c3c4c1OCc1c5c(cc(c1-4)CC3[N+](C)(C)CC2)OCO5 (centres undefined)
stdout: > 100 µM

stdin: Entry to check: `CC(=O)NC1=CC(=O)C=C(Cl)C1=O`
stdout: 31 µM

stdin: Entry to check: CC1CC/C(=C\c2ccc(F)cc2)C2=C1C(c1ccc(F)cc1)n1c(s/c(=C\c3ccc(Cl)cc3)c1=O)=N2 (centres undefined)
stdout: > 100 µM

stdin: Entry to check: `O[C@H]1[C@@H]2OC[C@@H](O)[C@H](OCc3ccccc3)[C@@](COCc3ccccc3)(O2)[C@@H]1OCc1ccccc1`
stdout: 29.4 µM

New cases:
stdin: Tell me the measured TGI of `C/C(CC(O)(C(F)(F)F)C(F)(F)F)=N/Nc1ccc([N+](=O)[O-])cc1[N+](=O)[O-]` , please.
stdout: > 10 µM

stdin: Entry to check: `NC(N)=N/N=C/c1c(-c2ccc(Cl)cc2)nc2n1CCS2`
stdout: 23.3 µM

stdin: Entry to check: `CCOC(=O)c1c(CN2CCOCC2)n(Cc2ccccc2)c2c1cc(O)c1nc(C)c(C)nc12`
stdout: > 100 µM

stdin: Entry to check: C=C1C(OCCO)OC2O[C@]3(C)CCC4[C@H](C)CCC1C24OO3 (some centres undefined)
stdout: 87.9 µM

====

Test system: NCI-H460 lung
Assay Overview: NCI tumour cell line growth inhibition, 48 h
Recorded TGI by entry

stdin: Tell me the measured TGI of `NC(N)=NC(N)=NCc1ccco1` , please.
stdout: > 1250 µM

stdin: Entry to check: `O=C(CSCC(=O)N/N=C/c1ccncc1)N/N=C/c1ccncc1`
stdout: > 100 µM

stdin: Entry to check: `O=C(N1CCN(c2ccccc2)CC1)N(C(=O)C1(c2ccc(Cl)cc2)CCCC1)S(=O)(=O)c1ccccc1`
stdout: > 100 µM

Next item in the queue.
stdin: Tell me the measured TGI of `CCCCCC/C(CC(=O)CCC(=O)NCCc1ccccc1)=N\NC(=O)c1ccc2ccccc2c1O` , please.
stdout: > 100 µM

====

Test system: SK-MEL-28 melanoma
Assay Overview: NCI tumour cell line growth inhibition, 48 h
Recorded TGI by entry

stdin: Tell me the measured TGI of COC(=O)C(=O)C(C(=O)C(=O)Nc1nc(=S)[nH][nH]1)c1nc2ccc([N+](=O)[O-])cc2[nH]c1=O (stereo not given) , please.
stdout: > 100 µM

stdin: Entry to check: `CC(=O)CC(=O)ON(C)C(=O)Cc1ccccc1`
stdout: > 100 µM

stdin: Entry to check: `C/C(CC(O)(C(F)(F)F)C(F)(F)F)=N/Nc1ccc([N+](=O)[O-])cc1[N+](=O)[O-]`
stdout: > 10 µM

stdin: Entry to check: `O=Cc1ccc2[nH]c(=O)oc2c1`
stdout: > 100 µM

stdin: Entry to check: `NC(=O)N=Nc1c2ccccc2n2[nH]ccc12`
stdout: > 100 µM

New cases:
stdin: Tell me the measured TGI of `C[C@]12CC[C@H]3[C@@H](CCC4=CC(=O)CC[C@@]43C)[C@@H]1CC[C@@H]2OC(=O)c1cccc2c(=O)c3ccccc3[nH]c12` , please.
stdout: > 100 µM

stdin: Entry to check: `CC(=O)Oc1cc2c(n(C)c1=O)CCC2`
stdout: > 100 µM

stdin: Entry to check: `Cc1ccc(C)c(C(=N)c2ccccc2Cc2ccccc2)c1`
stdout: 80.1 µM

stdin: Entry to check: `COc1ccc2c(c1)C(=O)c1c-2n(CCCNCCO)c(=O)c2cc([N+](=O)[O-])ccc12`
stdout: 1.5 µM

stdin: Entry to check: `CCOC(=O)/C=C1\C[C@H](NC(=O)OCc2ccccc2)C(=O)N1CC(=O)OCC`
stdout: > 100 µM

====

Tested on: UO-31 renal
Assay Overview: NCI tumour cell line growth inhibition, 48 h
Recorded TGI by entry

Previously resolved entries follow.
stdin: Tell me the measured TGI of COc1cc2c(cc1O)N=C[C@@H]1CCC(O)N1C2=O (mixture of isomers) , please.
stdout: 2.79 µM

stdin: Entry to check: CC1CC2(C)CC(=O)C1C1C(=O)N(CCN3CCOCC3)C(=O)C12 (centres undefined)
stdout: > 100 µM

New cases:
stdin: Tell me the measured TGI of CCOC(=O)C1C(=O)c2cccc(OC)c2C2COC(=O)N12 (centres undefined) , please.
stdout: > 100 µM

stdin: Entry to check: CC(C)CC1NC(=O)C(C(C)C)NC(=O)CC(C)COC(=O)C(CC(C)C)N(C)C(=O)C(C(C)C)NC(=O)C(C(C)C)OC1=O (centres undefined)
stdout: > 50 µM

stdin: Entry to check: CCN1CCC(O)(/C=C/c2ccc(Cl)cc2)C(C(=O)/C=C/c2ccc(Cl)cc2)C1 (centres undefined)
stdout: > 100 µM

stdin: Entry to check: `COc1ccc(OC)c(/C=C/C(=O)c2ccc3cc(OC)ccc3c2)c1`
stdout: > 15.2 µM

stdin: Entry to check: `C/C=C1/C(=O)O[C@]23C=C[C@@H]4C(C(=O)OC)=CO[C@H](O[C@@H]12)[C@@H]43`
stdout: 6.98 µM

stdin: Entry to check: `NCCNc1ncnc2ccc(Cl)cc12`
stdout: > 100 µM

stdin: Entry to check: `CC1(C)O[C@@H](CP(c2ccc3ccccc3c2)c2ccc3ccccc3c2)[C@H](CP(c2ccc3ccccc3c2)c2ccc3ccccc3c2)O1`
stdout: > 100 µM
